# System name: human M1 receptor (hCHRM1) (Homo sapiens, UniProt P11229)
# Sequence (P11229 1-460): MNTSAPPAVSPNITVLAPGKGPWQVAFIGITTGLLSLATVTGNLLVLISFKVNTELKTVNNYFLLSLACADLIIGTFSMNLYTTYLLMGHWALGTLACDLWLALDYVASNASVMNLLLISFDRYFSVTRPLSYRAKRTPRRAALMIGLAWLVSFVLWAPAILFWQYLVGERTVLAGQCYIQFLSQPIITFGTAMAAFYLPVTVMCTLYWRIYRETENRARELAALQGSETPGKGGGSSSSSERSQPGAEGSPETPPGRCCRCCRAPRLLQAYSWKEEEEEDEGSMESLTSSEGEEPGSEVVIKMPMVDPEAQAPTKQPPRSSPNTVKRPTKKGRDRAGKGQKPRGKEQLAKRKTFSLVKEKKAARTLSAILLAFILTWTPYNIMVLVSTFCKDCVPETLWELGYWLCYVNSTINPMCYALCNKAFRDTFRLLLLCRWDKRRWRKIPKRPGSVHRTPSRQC
# Protocol summary: Measurement of M1 receptor positive allosteric modulator (M1PAM) activity, calcium fluorescence (FLIPRtetra) in CHO-K1 cells in the presence of acetylcholine at EC20
# Details: inflection point of M1PAM activity, in the presence of acetylcholine at EC20 (final 0.6 nM), CHO-K1 cells expressing hCHRM1; read-out: IP value
Quantity kind: EC50 (nM)

Reference set, count: 5
{"columns": ["Molecule", "Scale unit", "EC50"],
 "data": [
  ["Cn1cc(-c2ccc(CN3Cc4cccc(OCCO)c4C3=O)cc2)cn1", "nM", 120],
  ["Cc1nn(C)cc1-c1ccc(CN2Cc3ccnc(O[C@H]4CCCC[C@@H]4O)c3C2=O)cc1 (relative stereo)", "nM", 2.1],
  ["Cn1cc(-c2ccc(CN3Cc4cccc(O[C@H]5CCCCC[C@@H]5O)c4C3=O)cc2)cn1 (relative stereo)", "nM", 9.1],
  ["Cn1cc(-c2ccc(CN3Cc4cccc(Oc5ccc(C(O)C(F)(F)F)cc5F)c4C3=O)nc2)cn1 (stereo not shown)", "nM", 32],
  ["O=C(NCC1CCCO1)c1ccc(CN2Cc3cccc(OCC4CCCO4)c3C2=O)cc1 (stereo not shown)", "nM", 44]
]}

a: Cn1cc(-c2ccc(CN3Cc4ccnc(Oc5cc(C#N)ccc5F)c4C3=O)cc2)cn1
b: Cc1nn(C)cc1-c1ccc(CN2Cc3ccnc(OCc4ccccc4F)c3C2=O)c(F)c1
Could you check which of a and b has a smaller value for EC50? // return label of chosen record a
(a: 16 nM, b: 29 nM)

A: CCn1cc(-c2ccc(CN3Cc4ncnc(OC5CCC5)c4C3=O)cc2)cn1
B: Cn1cc(-c2ccc(CN3Cc4ccnc(Oc5ccc(C(C)(C)O)cc5F)c4C3=O)cc2)cn1
C: CCNC(=O)c1ccc(CN2Cc3ccnc(Oc4ccc(C)cc4F)c3C2=O)c(F)c1
Please list the entries, largest EC50 first. In your reply, arrange the labels in the requested order. C, A, B
(C: 44 nM, A: 19 nM, B: 5.6 nM)

A: O=C1c2c(cccc2O[C@H]2CCCC[C@@H]2O)CN1Cc1ccc(-c2cn[nH]c2)cc1 (relative stereo)
B: Cn1cc(-c2ccc(CN3Cc4ccnc(OCC5CC5)c4C3=O)cc2)nn1
Could you check which of A and B has a smaller value for EC50? // return label of chosen record A
(A: 4.1 nM, B: 49 nM)
